Here is a set of compounds with reported Ki for D(2) dopamine receptor (Homo sapiens, UniProt P14416), compiled from the literature.
recorded-endpoint: Ki (nM)

Here is how some compounds turned out for Ki.
> print(dat)
                                   compound  assay.result
1  OC1(c2cccc(C(F)(F)F)c2)CCN(Cc2c[nH]c3ccccc23)CC1           106
2  Fc1ccc2c(C3CCN(CCCOc4ccc(CN5CCOCC5)c(Cl)c4)CC3)noc2c1           5.4
3       O=C(NCN1CCN(c2ccccc2Cl)CC1)c1ccccc1           178
4  COc1ccccc1N1CCN(CCCCNC(=O)/C=C/c2cc(I)c(OC)c(OC)c2)CC1          38.5
5  CCCN1C[C@H](OCCCCOc2ccc3c(c2)NC(=O)CC3)C[C@H]1CNC(=O)c1c(O)c(CC)cc(Cl)c1OC          2.57

1: c1c[nH]c2nc(CN3CCc4ccccc4C3)cc-2c1
2: CC(C)(C)OC(=O)N[C@H]1CC[C@H](CCN2CCc3ccc(C#N)cc3C2)CC1
Query block: Hi! Which is lower in terms of Ki, the first one 1 or the second one 2 ? Write the label of whichever entry you select.
Result block: 1

P: COc1ccc2[nH]cc(C3CCN(CCCCN4C(=O)CC(c5c[nH]c6ccc(F)cc56)C4=O)CC3)c2c1 (stereo not given)
Q: O=C(NC/C=C/CN1CCN(c2cccc(Cl)c2Cl)CC1)c1ccc2c(c1)Cc1ccccc1-2
R: COCCS(=O)(=O)n1ccc2c(-c3ccc(C(F)(F)F)cc3)cc(N3CCN(C)CC3)nc21
S: O=C1COc2ccccc2N1CCCN1CCC(n2c(=O)[nH]c3ncccc32)CC1
T: OC[C@@H]1[C@@H]2CN(Cc3ccccc3)[C@@H](c3ccccc3)[C@@H]2[C@H]1N1CCCCC1
Query block: Your job: order these 5 records by Ki, ascending. Could you list the labels in the order requested?
Result block: P, R, Q, S, T

a: CCCN1CCC(CNC(=O)c2c(O)c(CC)cc(Cl)c2OC)C1 (stereo not given)
b: COc1ccccc1N1CCN(CCCCNC(=O)c2cc3ccccc3oc2=O)CC1
Query block: When a and b are compared, which has the higher number for Ki? Please identify the chosen entry by its label.
Result block: b
(b: 146 nM, a: 66.4 nM)

====

For reference, the following Ki results for UniProtKB P14416 were taken from various sources.
recorded-endpoint: Ki (nM)

A selection of reference data follows.
> print(dat)
                                   molecule  assay.result
1  COc1ccccc1N1CCN(CCCNC(=O)c2ccc(I)cc2)CC1           117
2  Cc1ccc2c(c1)N=C(C1=C[C@H](C)N(C)CC1)c1cc(Cl)ccc1N2            98
3  Cc1ccc2c(c1)C(C1=C[C@H](C)N(C)CC1)=Nc1ccccc1N2           819
4  CC1(c2ccc(F)cc2)NC(=O)N(CC(O)CN2CCN(c3cccc(Cl)c3Cl)CC2)C1=O (stereo not given)           302
5  CC(C)(C)OC(=O)NC[C@H]1CC[C@H](CN2CCc3ccccc3C2)CC1          1150

P: CCCN(CCCCN1CCN(c2ccccc2OC)CC1)Cc1cc2ccccc2s1
Q: CC1(c2ccc(F)cc2)NC(=O)N(CC(O)CN2CCN(c3ccc(F)cc3F)CC2)C1=O (stereo not given)
Query block: Could you check which of P and Q has a smaller value for Ki? Which one? Tell me its label.
Result block: P
(P: 69.9 nM, Q: 6790 nM)

I: COc1ccccc1N1CCN(CCCN2CCc3ncsc3CC2)CC1
II: Cc1cc(C)c2c(N)c(C(=O)NCCCCCCN3CCC(O)(c4ccc(Cl)cc4)CC3)sc2n1
Query block: Please indicate which has the smaller reported Ki: I , or II . Field: selected label. Fill in the label of the entry you choose.
Result block: I

I: CN[C@@H]1Cc2cccc3c2n(c(=O)n3CCCCCCCCCCCCOCCCCc2ccccc2)C1
II: O=C(CCCCCN1CCN(c2ccccc2-c2ccccc2)CC1)N1CCc2ccccc2C1
III: CN1CCc2ccc3c(=O)oc4cccc5c4c3c2[C@H]1C5
Query block: Put the items in order so that reported Ki rises from first to last. // rank by listing labels in the order requested
Result block: I, II, III

I: CNCC1Cc2cc3ccn(S(=O)(=O)c4cccc5ccccc45)c3cc21 (stereo not given)
II: COc1cc2c(cc1O)[C@@H]1Cc3ccc(O)c(OC)c3CN1CC2
Query block: Could you kindly indicate whether I or II has the higher Ki value? Write down the label of the entry you select.
Result block: I
(I: 2510 nM, II: 974 nM)

1: O=C1COc2ccccc2N1CCCN1CCC(n2c(=O)[nH]c3c(F)cccc32)CC1
2: CSc1ccccc1C1CC1CNCCCCOc1ccc2c(c1)NC(=O)CC2 (stereo not given)
Query block: In terms of reported Ki, does 1 or 2 have the smaller number? // caller expects the label of the chosen entry
Result block: 1
(1: 15 nM, 2: 366 nM)

I: FC(F)(F)c1cccc(N2CCN(CCCCNc3ccc(-c4ccccc4)cn3)CC2)c1
II: N#Cc1ccc2c(c1)CCN(CC[C@H]1CC[C@H](NC(=O)c3cc4ccccc4[nH]3)CC1)CC2
Query block: Could you determine which record has the numerically smaller Ki? Candidates: I and II Could you answer with the label of the item you picked?
Result block: I

I: CC(C)CS(=O)(=O)n1ccc2c(-c3ccc(OCc4ccccc4)cc3)cc(N3CCN(C)CC3)nc21
II: Cc1cc(C)c2c(N)c(C(=O)NCCCCCN3CCN(c4cccc(Cl)c4Cl)CC3)sc2n1
Query block: In terms of reported Ki, does I or II have the smaller number? Give the label of your selection.
Result block: II

1: N#Cc1ccccc1N1CCN(CNC(=O)c2cccc(Cl)c2)CC1
2: OC1(c2ccc(Cl)cc2)CCCN(Cc2c[nH]c3ccccc23)C1 (stereo not given)
3: O=S(=O)(NC1CCN(CCOc2ccccc2)C1)c1ccc(F)cc1 (stereo not given)
4: Cc1cccc(N2CCN(CCCCNc3ccccn3)CC2)c1C
Query block: // sort entries: Ki, high to low Reply with the labels, ordered as the question asks.
Result block: 2, 1, 4, 3
